assay: Biodistribution in BxPC3-luc tumor-bearing mice; assay type: in vivo, BALB/c nu/nu mice; conditions: female, BALB/c nu/nu, mouse, kidney, iv, 74 kBq, total radioactivity; 10 min post-injection, i.v.; read-out: Biodistribution, Kidney
Where a SMILES comes first, the peptide text is derived from it. The star is where a group is joined. DOTA = O=C(O)CN1CCN(CC(=O)O)CCN(CC(=O)*)CCN(CC(=O)O)CC1; AEEA = NCCOCCOCC(=O)O
property.measured: tissue uptake at 10 min (%ID/g)
Provide the reading as a plain figure in %ID/g.

## Task I would be grateful if you could share the reported tissue uptake at 10 min for CC[C@H](C)[C@H](NC(=O)COCCOCCNC(=O)CN1CCN(CC(=O)O)CCN(CC(=O)O)CCN(CC(=O)O)CC1)C(=O)N1CCC[C@H]1C(=O)N[C@@H](CC(C)C)C(=O)N1CCC[C@H]1C(=O)N1CCC[C@H]1C(=O)N1CCC[C@H]1C(=O)N[C@@H](CCCNC(=N)N)C(=O)N[C@@H](CCCNC(=N)N)C(=O)N1CCC[C@H]1C(=O)N[C@@H](Cc1ccccc1)C(=O)N[C@@H](Cc1ccccc1)C(=O)N[C@@H](CCCCN)C(=O)O [[^67Ga]27, [^67Ga]Ga-DOTA-EG2-IPLPPPRRPFFK, metal not drawn] ({DOTA-AEEA}-IPLPPPRRPFFK-OH) .
## Result 13.9
